Form field: RP-LC retention time (one value per entry).
- EXPERIMENTAL DETAILS: gradient 5% acetonitrile 3 min, to 50% in 2 min, to 85% in 15 min, held 3 min, 100 µL/min
- CONDITIONS: column: Zorbax Extend-C18 2.1 x 50 mm; eluents: water / acetonitrile, 0.1% formic acid
// note: answer is a bare numeric in s

                                   compound     reported_property  reported_result
0  CC(=O)Nc1ccc(NC(=O)c2cc3sc(C)c(CN4CCCCC4)c3[nH]2)cc1  RP-LC retention time              609
1  O=C1NC2C(=CC(O)C(O)C2O)c2cc3c(cc21)OCO3 (stereo not given)  RP-LC retention time              568
2  O=C(CN1C(=O)C(C(=O)N2CCCC2)Sc2ccccc21)NCc1ccc(Br)cc1 (stereo not given)  RP-LC retention time              971

Q: Specify reported RP-LC retention time for the compound shown: CC(C)N1C(=O)c2cccnc2Sc2cc(NC(=O)COc3ccccc3)ccc21
Ans: 889

Q: Using the record for COc1ccc(Cl)cc1NC(=O)Cc1nnc(-c2ccc3ncccc3c2)o1 , state its measured RP-LC retention time.
Ans: 797
